- Assay type: in vitro ADME, Rat
- experimental conditions: clearance in hepatocytes
*1 amine or outer side, *2 acyl side, *3 side chain or, on linkers, in order; H or OH if unused. Where a SMILES comes first, the peptide text is derived from it. [ ]: non-standard residue; d: D form. ξ: configuration not given here. X3 = C#CCOc1ccc([C@@H](OC)[C@H](N[*:1])C(=O)[*:2])cc1; X5 = C=CCn1cc(C[C@@H](C(=O)[*:2])N(C)[*:1])c2ccccc21; X1 = C#CCn1cc(C[C@H](N[*:1])C(=O)[*:2])c2ccccc21; X7 = C=CCn1cc(C[C@H](N[*:1])C(=O)[*:2])c2ccccc21; NMeLeu(5-OH,4R) = CN[C@@H](C[C@@H](C)CO)C(=O)O; Phe(βR-OMe) = CO[C@H](c1ccccc1)[C@H](N)C(=O)O; ξNMeTrp(1-Me) = CNC(Cc1cn(C)c2ccccc12)C(=O)O; X8 = CC(CO)C[C@@H](C(=O)[*:2])N(C)[*:1]; NMeL = CN[C@@H](CC(C)C)C(=O)O; ξV = CC(C)C(N)C(=O)O
readout type: Hepatocyte Rat (%Qh)
Write the value in %Qh as a bare number.

q: Return reported Hepatocyte Rat; argument: C=CCn1cc(C[C@@H]2NC(=O)[C@H](C(C)C)NC(=O)[C@H](CC(C)C)N(C)C(=O)[C@H](C(C)C)NC(=O)[C@H]([C@H](OC)c3ccccc3)NC(=O)[C@H](C)NC(=O)[C@H](C[C@@H](C)CO)N(C)C2=O)c2ccccc21 [Compound 13] (cyclo(A[Phe(βR-OMe)]V[NMeL]V[X7][NMeLeu(5-OH,4R)]))
a: 65

q: Return reported Hepatocyte Rat; argument: C=CCn1cc(C[C@H]2C(=O)N(C)[C@@H](C[C@@H](C)CO)C(=O)N[C@@H](C)C(=O)N[C@@H]([C@H](OC)c3ccccc3)C(=O)N[C@@H](C(C)C)C(=O)N(C)[C@@H](CC(C)C)C(=O)N[C@@H](C(C)C)C(=O)N2C)c2ccccc21 [SI-60] (cyclo(A[Phe(βR-OMe)]V[NMeL]V[X5][NMeLeu(5-OH,4R)]))
a: 57

q: Return reported Hepatocyte Rat; argument: CO[C@H](c1ccccc1)[C@@H]1NC(=O)[C@H](C)NC(=O)[C@H](C[C@@H](C)CO)N(C)C(=O)[C@H](Cc2cn(C)c3ccccc23)N(C)C(=O)[C@H](Cc2cn(CCCCCn3cc(C[C@@H]4NC(=O)[C@H](CC(C)C)N(C)C(=O)[C@H](C(C)C)NC(=O)[C@H]([C@H](OC)c5ccccc5)NC(=O)[C@H](C)NC(=O)[C@H](C[C@@H](C)CO)N(C)C(=O)[C@H](Cc5cn(C)c6ccccc56)N(C)C4=O)nn3)nn2)NC(=O)[C@H](CC(C)C)N(C)C(=O)[C@H](C(C)C)NC1=O
a: 10

q: Return reported Hepatocyte Rat; argument: C#CCOc1ccc([C@@H](OC)[C@@H]2NC(=O)[C@@H](C)NC(=O)[C@H](CC(C)CO)N(C)C(=O)C(Cc3cn(C)c4ccccc34)N(C)C(=O)C(C(C)C)NC(=O)[C@H](CC(C)C)N(C)C(=O)[C@@H](C(C)C)NC2=O)cc1 (some centres unmarked) [SI-64] (cyclo([NMeL][ξV][ξNMeTrp(1-Me)][X8][dA][X3][dV]))
a: 50

q: Return reported Hepatocyte Rat; argument: CO[C@H](c1ccccc1)[C@@H]1NC(=O)[C@H](C)NC(=O)[C@H](C[C@@H](C)CO)N(C)C(=O)[C@H](Cc2cn(C)c3ccccc23)N(C)C(=O)[C@H](Cc2cn(CCOCCOCCn3cc(C[C@@H]4NC(=O)[C@H](CC(C)C)N(C)C(=O)[C@H](C(C)C)NC(=O)[C@H]([C@H](OC)c5ccccc5)NC(=O)[C@H](C)NC(=O)[C@H](C[C@@H](C)CO)N(C)C(=O)[C@H](Cc5cn(C)c6ccccc56)N(C)C4=O)nn3)nn2)NC(=O)[C@H](CC(C)C)N(C)C(=O)[C@H](C(C)C)NC1=O
a: 6

q: Return reported Hepatocyte Rat; argument: C#CCn1cc(C[C@@H]2NC(=O)[C@H](C(C)C)NC(=O)[C@H](CC(C)C)N(C)C(=O)[C@H](C(C)C)NC(=O)[C@H](Cc3ccccc3)NC(=O)[C@H](C)NC(=O)[C@H](C[C@@H](C)CO)N(C)C2=O)c2ccccc21 [SI-72] (cyclo(AFV[NMeL]V[X1][NMeLeu(5-OH,4R)]))
a: 82

q: Return reported Hepatocyte Rat; argument: COC(c1ccccc1)C1NC(=O)C(C)NC(=O)C(CC(C)CO)N(C)C(=O)C(Cc2cn(Cc3cn(CCOCCOCCOCCOCCn4cc(Cn5cc(CC6NC(=O)C(C(C)C)NC(=O)C(CC(C)C)N(C)C(=O)C(C(C)C)NC(=O)C(C(OC)c7ccccc7)NC(=O)C(C)NC(=O)C(CC(C)CO)N(C)C6=O)c6ccccc65)nn4)nn3)c3ccccc23)NC(=O)C(C(C)C)NC(=O)C(CC(C)C)N(C)C(=O)C(C(C)C)NC1=O (centres unmarked)
a: 6

q: Return reported Hepatocyte Rat; argument: CO[C@H](c1ccccc1)[C@@H]1NC(=O)[C@H](C)NC(=O)[C@H](C[C@@H](C)CO)N(C)C(=O)[C@H](Cc2cn(Cc3cn(CCOCCn4cc(Cn5cc(C[C@@H]6NC(=O)[C@H](C(C)C)NC(=O)[C@H](CC(C)C)N(C)C(=O)[C@H](C(C)C)NC(=O)[C@H]([C@H](OC)c7ccccc7)NC(=O)[C@H](C)NC(=O)[C@H](C[C@@H](C)CO)N(C)C6=O)c6ccccc65)nn4)nn3)c3ccccc23)NC(=O)[C@H](C(C)C)NC(=O)[C@H](CC(C)C)N(C)C(=O)[C@H](C(C)C)NC1=O
a: 6
